Tested on: MKN-45
Assay: Growth inhibition of human MKN45 cells after 72 hrs by methylene blue dye assay
Type: functional, cell-based
Settings: MKN-45, 72 h
pIC50: −log10 of the molar value.
The label depends only on pIC50: condition met if it is at least 6, condition not met if it is smaller.

Worked examples, 8 compounds total:
1) COc1ccc2c(N)c(C(=O)c3cc(OC)c(OC)c(OC)c3)ccc2c1
condition not met
2) COc1ccc2c(C(=O)c3cc(OC)c(OC)c(OC)c3)c(N)ccc2c1
condition met
3) COc1ccc2c(C(=O)c3cc(OC)c(OC)c(OC)c3)c(O)ccc2c1
condition met
4) CCc1ccc2cc(OC)ccc2c1C(=O)c1cc(OC)c(OC)c(OC)c1
condition met
5) COc1ccc2c(C(=O)c3cc(OC)c(OC)c(OC)c3)c(C)ccc2c1
condition met
6) CNc1ccc2cc(OC)ccc2c1C(=O)c1cc(OC)c(OC)c(OC)c1
condition met
7) COc1ccc2c(O)c(C(=O)c3cc(OC)c(OC)c(OC)c3)ccc2c1
condition not met
8) COc1ccc2c(C(=O)c3cc(OC)c(OC)c(OC)c3)c(N(C)C)ccc2c1
condition not met

API: above_or_equal(metric=pIC50, cutoff=6) for item COc1ccc2cc(C(=O)c3cc(OC)c(OC)c(OC)c3)ccc2c1
condition met

hey, is pIC50 for this one >= 6? COc1ccc2c(C(=O)c3cc(OC)c(OC)c(OC)c3)c[nH]c2c1
condition met

Assess whether reported pIC50 for CCCOc1ccc2cc(OC)ccc2c1C(=O)c1cc(OC)c(OC)c(OC)c1 sits at 6 or higher.
condition not met

Does the compound COc1ccc2c(C(=O)c3cc(OC)c(OC)c(OC)c3)c(OC)ccc2c1 have recorded pIC50 that is 6 or more?
condition met

Decide: pIC50 of COc1ccc2c(OC)c(C(=O)c3cc(OC)c(OC)c(OC)c3)ccc2c1 >= 6?
condition not met

API: above_or_equal(metric=pIC50, cutoff=6) for item COc1ccc2c(C(=O)c3cc(OC)c(OC)c(OC)c3)cccc2c1
condition met

Sourced from ChEMBL document CHEMBL1151752
